- Organism: Rattus norvegicus
- assay_procedure: Open TG-GATES - Regimen: Single
- Format: toxicity, organism-based, Sprague-Dawley
- Parameters: regimen Single, gender Male, age 6 weeks
- stated_conditions: in vivo, po, 100 mg/kg, 24 h, tissue Blood, route gavage, dose level Low

{"compound": "CCc1cc(C(N)=S)ccn1 [ETHIONAMIDE]", "Fbg [mg/dL]": 214.8}
{"compound": "O=C(O)c1cn(C2CC2)c2cc(N3CCNCC3)c(F)cc2c1=O [CIPROFLOXACIN]", "Fbg [mg/dL]": 218}
{"compound": "O=C(O)c1cc(/N=N/c2ccc(S(=O)(=O)Nc3ccccn3)cc2)ccc1O [SULFASALAZINE]", "Fbg [mg/dL]": 234.6}
{"compound": "Clc1ccccc1CN1CCc2sccc2C1 [TICLOPIDINE]", "Fbg [mg/dL]": 222}
